Data provenance is patent US20240199639A1.

Procedure Summary: Kinetic solubility of HME ASDs in FaSSIF at 37° C.
Assay type: physicochemical
Stated Conditions: thermodynamic from solid, after sieving (60 mesh), 15 min, read-out: Solubility (μg/mL) 15 min
Assay Endpoint: solubility at 15 min
Field note: include the unit after the figure.

Query :: Fill in: solubility at 15 min of "O=[N+]([O-])c1cn2c(n1)OC[C@@H](OCc1ccc(OC(F)(F)F)cc1)C2" is ___
Result :: 31.7 µg/mL

====

Procedure Summary: Kinetic solubility of HME ASDs in FaSSIF at 37° C.
Format: physicochemical
Stated Conditions: thermodynamic from solid, without sieving, 120 min, read-out: Solubility (μg/mL) 120 min
Assay Endpoint: solubility at 120 min
Please state the value followed by its unit.

Query :: I am curious: what solubility at 120 min value has been reported for "O=[N+]([O-])c1cn2c(n1)OC[C@@H](OCc1ccc(OC(F)(F)F)cc1)C2" ?
Result :: 41.4 µg/mL

====

Procedure Summary: Kinetic solubility of nanospray-dried ASDs in FaSSIF at 37° C.
Format: physicochemical
Stated Conditions: thermodynamic from solid, 30 min, read-out: Solubility (μg/mL) 30 min
Method: 10 mL of FASSIF was added into 8 vials containing each ASD prepared before by nanospray drying, respectively, then the suspensions were shaken using a thermomixer at 37° C. under 100 rpm, 300 μL of suspensions were withdrawn at 15, 30, 45, 60, 90, 120 and 180 mins. The samples of suspensions were centrifuged in 96-well plates at 3000 rpm for 5 min. The supernatants were diluted with the diluent (ACN/water, 50/50) and analyzed by HPLC.
Assay Endpoint: solubility at 30 min (µg/mL)
Enter your answer as a number in µg/mL; do not include the unit.

Query :: Entry "O=[N+]([O-])c1cn2c(n1)OC[C@@H](OCc1ccc(OC(F)(F)F)cc1)C2" : reported solubility at 30 min = ?
Result :: 23.7

====

Procedure Summary: Kinetic solubility of HME ASDs in FaSSIF at 37° C.
Assay type: physicochemical
Stated Conditions: thermodynamic from solid, after sieving (60 mesh), 30 min, read-out: Solubility (μg/mL) 30 min
Assay Endpoint: solubility at 30 min (µg/mL)
Kindly provide the numeric value in µg/mL only, without the unit symbol.

Query :: Consider the compound O=[N+]([O-])c1cn2c(n1)OC[C@@H](OCc1ccc(OC(F)(F)F)cc1)C2 [PA-824] and give its measured solubility at 30 min.
Result :: 31.2

====

Procedure Summary: Supersaturated solubility measurement in FaSSIF with 2% DMSO
Type: physicochemical
Stated Conditions: fassif, kinetic from dmso stock, target conc. 616.80 μg/mL, read-out: Measured conc.(μg/mL)
Assay Endpoint: solubility kinetic at 16 min (µg/mL)
Give the number; µg/mL is assumed, so skip it.

Query :: Can you look up the measured solubility kinetic at 16 min of O=[N+]([O-])c1cn2c(n1)OC[C@@H](OCc1ccc(OC(F)(F)F)cc1)C2 [PA-824] for me?
Result :: 28.7

====

Procedure Summary: Kinetic solubility of Soluplus ASDs with different drug loadings in FaSSIF at 37° C.
Assay type: physicochemical
Stated Conditions: thermodynamic from solid, Table 8, FaSSIF, 30 min, read-out: Solubility (μg/mL) 30 min
Assay Endpoint: solubility at 30 min (µg/mL)
Reply numerically in µg/mL, unit not repeated.

Query :: Sample O=[N+]([O-])c1cn2c(n1)OC[C@@H](OCc1ccc(OC(F)(F)F)cc1)C2 [PA-824] — what was its solubility at 30 min?
Result :: 23.7
